// data source = a melting point compilation (Tetko et al.; mined from patent text by program, amines drawn as free bases though some values may be those of a salt)

experimental-endpoint: melting point

{"columns": ["compound", "melting point"],
 "data": [
  ["CCn1cc(C(=O)O)c(=O)c2ccc(C3CCCCC3)cc21", "222 to 224 °C"],
  ["OC(Cn1cncn1)(c1ccc(F)cc1F)C(F)(F)C(F)(F)F (stereo not given)", "95 to 96 °C"],
  ["CC1(O)CCN(C(=O)c2cc(-c3cnc4[nH]cc(C(=O)C5(C)CCCCC5)c4n3)cs2)CC1", "257 to 259 °C"],
  ["CCCCCCCCCCCN=C1SC(=CC(=O)O)C(=O)N1CCCCCCCCCCC", "67 to 68 °C"]
]}

Exercise: Name the recorded melting point of the item COc1ccc(N2CCN(c3c(C)c4c(c(OC)c3C)OC(C)C4)CC2)cc1 (stereo not given) in your answer.
Solution: 109 to 111 °C

----------
// values below are reported melting point

Please review the following examples before continuing.
{"columns": ["compound", "melting point"],
 "data": [
  ["C=CCOc1ccc(Oc2ccc(C(=O)OC)cc2)cc1", "75 °C"],
  ["C=CC(=O)Nc1csc(Br)n1", "152 to 154 °C"],
  ["CCOCc1nc(N)c2nc(C)cnc2n1", "166 to 168 °C"],
  ["CC(C)NCCCCOc1ccc(O)cc1", "91 to 93 °C"],
  ["O=c1c2cc(F)c(N3CCCC3)c(F)c2n(C2CC2)c(=O)n1O", "228 to 230 °C"]
]}

Exercise: Name the recorded melting point of the item CCOC(=O)c1c(-c2ccc(F)cc2)oc(-c2ccc(F)cc2)cc1=O in your answer.
Solution: 113 to 114 °C

Exercise: Name the recorded melting point of the item Nc1ccc(-c2nc3n(c2-c2ccc(N)cc2)CCS3)cc1 in your answer.
Solution: 205 to 206 °C

Exercise: Name the recorded melting point of the item CCN(CC)c1ccc2c(c1)C[C@@H]1c3ccccc3N[C@H]21 (relative stereo) in your answer.
Solution: 116 to 118 °C

----------
experimental-endpoint: melting point

Please review the following examples before continuing.
{"columns": ["molecule", "observed-result"],
 "data": [
  ["O=C(O)c1ccc(-n2sc(-c3ccccc3)cc2=O)cc1", "238 to 240 °C"],
  ["COC(=O)C1=C(N)C(CCCCC(=O)O)SC1 (stereo not given)", "98 to 102 °C"],
  ["COc1cc(CC#N)c(CCN)cc1OC", "78 °C"]
]}

Exercise: Name the recorded melting point of the item CC(C)(C)OC(=O)CC1CC(C=O)OC(C)(C)O1 (stereo not given) in your answer.
Solution: 71 to 73 °C

Exercise: Name the recorded melting point of the item N#CCc1cc(N)c(F)cc1Cl in your answer.
Solution: 85 to 86 °C

Exercise: Name the recorded melting point of the item COc1ccc2[nH]c(C(=O)C34CC5CC(CC(C5)C3)C4)cc2c1 in your answer.
Solution: 229 to 231 °C

Exercise: Name the recorded melting point of the item O=C1CCN(Cc2ccc(O)cc2)CC1C(c1ccccc1)c1ccccc1 (stereo not given) in your answer.
Solution: 133 to 134 °C

Exercise: Name the recorded melting point of the item Cc1ccccc1-c1nn(C(C)C(=O)N(C)C)cc1Cl (stereo not given) in your answer.
Solution: 69 to 71.5 °C

Exercise: Name the recorded melting point of the item CC(=O)NC[C@H]1CN(c2ccc(C3=CCOCC3)c(F)c2)C(=O)O1 in your answer.
Solution: 148 to 151 °C

Exercise: Name the recorded melting point of the item COC(=O)N(C)N=C(c1ccc(Cl)cc1)C(C)(C)C in your answer.
Solution: 58 to 60 °C

----------
// values below are reported melting point

Please review the following examples before continuing.
{"columns": ["compound", "observed-result"],
 "data": [
  ["O=C(c1ccc(F)cc1)C1CCN(CCCc2nc3ccccc3c(=O)[nH]2)CC1", "184 °C"],
  ["O=C(Nc1ccc(Oc2ccc(C(O)CCC(=O)N3CCOCC3)cc2)c(F)c1)c1ccc(Cl)c(Cl)c1 (stereo unspecified)", "108 to 111 °C"],
  ["Clc1ccc(C2(Cl)c3ccc(Cl)cc3-c3ncncc32)cc1 (stereo unspecified)", "152 to 153 °C"],
  ["CCCNC(=S)Nc1sccc1C(=O)OC", "123 to 126 °C"]
]}

Exercise: Name the recorded melting point of the item CC(C)NC(=O)C(C#N)=Cc1cc(O)c(O)c([N+](=O)[O-])c1 in your answer.
Solution: 243 to 245 °C

Exercise: Name the recorded melting point of the item O=c1[nH]c2cc(C(F)(F)F)ccc2n1-c1cc(Cl)cc(Br)c1O in your answer.
Solution: 254 to 255 °C

----------
// values below are reported melting point

Please review the following examples before continuing.
{"columns": ["smi", "melting point"],
 "data": [
  ["Cc1ccc(C(=O)OCCO)cc1-n1c(C)cc(OCc2ccc(F)cc2CNC(=O)Nc2cc(C(C)(C)C)nn2-c2cccc(OCCO)c2)c(Cl)c1=O", "180 to 181 °C"],
  ["COC(=O)c1ccc(-c2nc(-c3ccc(Br)cc3)cs2)cc1", "206 to 207 °C"],
  ["CSc1nc(N)nc(-c2ccc([N+](=O)[O-])o2)n1", "179 to 181 °C"],
  ["CN(C)c1ccc2c(c1)OCCC2=O", "109 to 120 °C"],
  ["O=C(Nc1ccc2nc(-c3ccccc3)oc2n1)c1ccccc1", "191 to 192 °C"],
  ["COc1ccc2cc(-c3ccc(C(=O)O)cc3)ccc2c1", "288 to 289 °C"]
]}

Exercise: Name the recorded melting point of the item CCCCCCCCCCCN(CC)C(=O)N(O)O in your answer.
Solution: 42 to 43 °C

Exercise: Name the recorded melting point of the item CS(=O)(=O)c1ccc(-c2cnn(Cc3ccc4cc(F)ccc4n3)c(=O)c2-c2ccc(F)cc2)cc1 in your answer.
Solution: 116 to 119 °C

Exercise: Name the recorded melting point of the item CN(C)S(=O)(=O)c1cccc(S(N)(=O)=O)c1 in your answer.
Solution: 101 to 106 °C

Exercise: Name the recorded melting point of the item CCOC(=O)c1cnc2c(OC(F)F)c(F)ccc2c1O in your answer.
Solution: 218 to 219 °C

Exercise: Name the recorded melting point of the item O=[N+]([O-])C1([N+](=O)[O-])CN(C(F)(F)F)C1 in your answer.
Solution: 70 to 71 °C

Exercise: Name the recorded melting point of the item COc1cccc([C@H]2O[C@H](CC(=O)Nc3cccc(C(=O)O)c3C)C(=O)N(CC(C)(C)COC(C)=O)c3ccc(Cl)cc32)c1OC in your answer.
Solution: 139 to 142 °C

----------
experimental-endpoint: melting point

Please review the following examples before continuing.
{"columns": ["compound", "observed-result"],
 "data": [
  ["Cc1ccc2c(c1)c(-c1ccc(F)cc1)c(C)n2C1CCN(C)CC1", "110 to 112 °C"],
  ["CCCc1nc2ccnn2c(O)c1Cc1ccc(-c2ccccc2C(=O)O)cc1", "230 to 240 °C"],
  ["CN(c1ccc(O)cc1)c1nc2cc(Cl)c(Cl)cc2nc1Cl", "176 °C"],
  ["CC(C)(C)C1CCc2oc(=O)c(-c3ccccc3)c(O)c2C1 (configuration not stated)", "195 °C"],
  ["Nc1ncnc2ncn(COCCCl)c12", "184 to 186 °C"],
  ["COc1ccc(-c2ccc(-c3ccccc3)nc2-c2ccc(OCCN3CCCC3)cc2)cc1", "100 to 103 °C"]
]}

Exercise: Name the recorded melting point of the item CC(=O)c1c(N=Cc2ccccc2)c(-c2ccccc2)n(Cc2ccc(Cl)cc2)c1C in your answer.
Solution: 136 to 137 °C

----------
// values below are reported melting point

Please review the following examples before continuing.
{"columns": ["compound", "melting point"],
 "data": [
  ["CCC(C)CNC(=S)NS(=O)(=O)c1sc(Cl)cc1N (configuration not stated)", "116 to 118 °C"],
  ["Oc1ccc(-c2ncc3ncc(-c4ccncc4)cc3n2)cc1", "> 268 °C"],
  ["O=C(OCC1CCc2c(O)cccc2C1)N(c1ccccc1)c1ccccc1 (configuration not stated)", "96 to 98 °C"],
  ["CCCCOC(=O)C=CCOc1ccc(F)c(C(N)=O)c1F", "< 40 °C"],
  ["Cc1nnn2c1CO[C@H]1CN(C(=O)OC(C)(C)C)C[C@@H]12", "195 to 196 °C"],
  ["Cc1ccc(CSc2nc3cc4c(cc3[nH]2)OCO4)nc1", "187 to 188 °C"],
  ["Cn1nc(N)c2c(=O)n(-c3ccccc3)c3ncccc3c21", "> 300 °C"],
  ["CCCCN(C)C(N)=C(C#N)C(N)=S", "163 to 165 °C"]
]}

Exercise: Name the recorded melting point of the item CCCCOc1ccc(OCc2ccccc2)c(C(=O)O)c1 in your answer.
Solution: 79 to 82 °C

Exercise: Name the recorded melting point of the item CCOC(=O)/C(N)=C/C(=O)/C=C/c1ccc(Cl)cc1 in your answer.
Solution: 105 to 107 °C

Exercise: Name the recorded melting point of the item O=C(NCCSCc1cccc(Cl)c1)c1c(C(F)(F)F)cccc1C(F)(F)F in your answer.
Solution: 93 to 94 °C

Exercise: Name the recorded melting point of the item O=C1CCCc2nc3cc(F)ccc3c(NCc3ccccc3C(F)(F)F)c21 in your answer.
Solution: 146 to 151 °C

Exercise: Name the recorded melting point of the item COCCn1nc(C(N)=O)cc1CC(C)(C)C#N in your answer.
Solution: 130 to 131 °C

Exercise: Name the recorded melting point of the item Cc1ccc(C#N)nc1 in your answer.
Solution: 72 to 74 °C

Exercise: Name the recorded melting point of the item Cc1cc(SCc2ccnc3c2nc(-c2ccc(C(F)(F)F)cc2)n3C)ccc1CCC(=O)O in your answer.
Solution: 89 to 91 °C

Exercise: Name the recorded melting point of the item CCOC(=O)C1=CNC2=C(C(=O)OC)CCC(C)N2C1=O (configuration not stated) in your answer.
Solution: 136 to 139 °C

Exercise: Name the recorded melting point of the item CCCCCCCCCCCCCCOc1cc(OCCCOc2ccc(O)cc2)cc(C(=O)O)c1 in your answer.
Solution: 91 to 93 °C
